Test System: 5-HT2A receptor (Rattus norvegicus)
Construct: from tissue; host or cells: Sprague-Dawley rat frontal cortex membranes
Sequence (P14842 whole entry): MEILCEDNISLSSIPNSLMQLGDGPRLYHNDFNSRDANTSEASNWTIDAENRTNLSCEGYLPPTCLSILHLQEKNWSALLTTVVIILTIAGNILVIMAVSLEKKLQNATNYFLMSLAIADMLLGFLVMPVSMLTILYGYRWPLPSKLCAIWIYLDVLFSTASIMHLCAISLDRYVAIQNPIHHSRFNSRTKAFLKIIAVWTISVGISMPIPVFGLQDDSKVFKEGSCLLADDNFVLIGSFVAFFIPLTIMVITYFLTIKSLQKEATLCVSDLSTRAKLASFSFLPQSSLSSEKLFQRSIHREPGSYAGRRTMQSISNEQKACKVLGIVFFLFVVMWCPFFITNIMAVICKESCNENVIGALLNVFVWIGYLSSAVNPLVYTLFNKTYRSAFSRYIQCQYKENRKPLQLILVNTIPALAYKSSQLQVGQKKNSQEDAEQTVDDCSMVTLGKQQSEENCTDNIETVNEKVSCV
Test Name: 5-HT2A competitive radioligand binding assay with [3H]ketanserin, frontal cortex membranes
Set-up: species or system Sprague–Dawley rats
Condition Summary: read-out: 5-HT2A Ki (nM, 95% CI)
// reported Ki for each item listed
Your answer should be a plain number; it is taken to be in nM.

>  <Compound>
COc1cccc(N2CCN(CC(O)COc3ccc4c(C)cc(=O)oc4c3C(C)=O)CC2)c1 (centres unmarked)

>  <Unit Abbreviation>
nM

>  <Experimental Result>
67

$$$$

From here, focus on the item given below.
Ask: I'm curious: which Ki was measured for COc1cccc(N2CCN(CC(O)COc3cc(=O)oc4ccccc34)CC2)c1 (centres unmarked) tested on 5-HT2A receptor (Rattus norvegicus)?
Reply: 315

* * *

Test System: 5-HT1A receptor (Rattus norvegicus)
Construct: from tissue; host or cells: Sprague-Dawley rat hippocampus membranes
Sequence (P19327 1-422): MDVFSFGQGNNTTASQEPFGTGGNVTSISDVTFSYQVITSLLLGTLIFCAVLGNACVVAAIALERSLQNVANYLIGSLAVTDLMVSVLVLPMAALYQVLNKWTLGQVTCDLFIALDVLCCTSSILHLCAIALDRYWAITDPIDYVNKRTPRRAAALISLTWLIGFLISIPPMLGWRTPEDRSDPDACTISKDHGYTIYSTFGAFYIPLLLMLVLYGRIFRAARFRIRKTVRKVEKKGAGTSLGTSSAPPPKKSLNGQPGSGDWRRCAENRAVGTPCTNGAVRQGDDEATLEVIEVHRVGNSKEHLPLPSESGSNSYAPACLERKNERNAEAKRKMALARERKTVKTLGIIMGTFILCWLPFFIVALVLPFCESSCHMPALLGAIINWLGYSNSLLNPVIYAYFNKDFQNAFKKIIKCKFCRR
Test Name: 5-HT1A competitive radioligand binding assay with [3H]8-OH-DPAT, hippocampal membranes
Parameters: species or system Sprague–Dawley rats
Condition Summary: [3H]8-OH-DPAT, hippocampal membranes; 95% CI in brackets
Reported Metric: Ki (nM)
Numeric only. Scale: nM

>  <Compound>
COc1ccccc1N1CCN(CC(O)COc2ccc3ccc(=O)oc3c2)CC1 (stereo not shown)

>  <Ki / nM>
222

$$$$
>  <Compound>
COc1cccc(N2CCN(CC(O)COc3ccc4ccc(=O)oc4c3)CC2)c1 (stereo not shown)

>  <Ki / nM>
135

$$$$
>  <Compound>
COc1cccc(N2CCN(CC(O)COc3cc(=O)oc4ccccc34)CC2)c1 (stereo not shown)

>  <Ki / nM>
190

$$$$
>  <Compound>
COc1cccc(N2CCN(CC(O)COc3ccc4c(C)cc(=O)oc4c3)CC2)c1 (stereo not shown)

>  <Ki / nM>
87

$$$$
>  <Compound>
COc1cccc(N2CCN(CC(O)COc3cc(C)cc4oc(=O)cc(C)c34)CC2)c1 (stereo not shown)

>  <Ki / nM>
176

$$$$
>  <Compound>
COc1cccc(N2CCN(CC(O)COc3ccc4c(C)cc(=O)oc4c3C(C)=O)CC2)c1 (stereo not shown)

>  <Ki / nM>
264

$$$$

Ask: Can you share its Ki? I mean this compound: COc1cccc(N2CCN(CC(O)COc3cc4oc(=O)cc(C)c4cc3C(C)=O)CC2)c1 (stereo not shown)
Reply: 196

Ask: Entry COc1ccccc1N1CCN(CC(O)COc2c(C(C)=O)c(C)cc3oc(=O)cc(C)c23)CC1 (stereo not shown) please
Reply: 90

Ask: Entry to check: COc1ccccc1N1CCN(CC(O)COc2cc(C)cc3oc(=O)cc(C)c23)CC1 (stereo not shown)
Reply: 90

Ask: Next compound up: COc1ccccc1N1CCN(CC(O)COc2cc3oc(=O)cc(C)c3cc2C(C)=O)CC1 (stereo not shown)
Reply: 243

Ask: Try COc1ccccc1N1CCN(CC(O)COc2cc(=O)oc3ccccc23)CC1 (stereo not shown) next.
Reply: 243

Ask: Request: COc1ccccc1N1CCN(CC(O)COc2ccc3c(C)cc(=O)oc3c2)CC1 (stereo not shown)
Reply: 245

Ask: Try the compound COc1cccc(N2CCN(CC(O)COc3c(C(C)=O)c(C)cc4oc(=O)cc(C)c34)CC2)c1 (stereo not shown)
Reply: 1780

* * *

Test System: 5-HT2A receptor (Rattus norvegicus)
Construct: from tissue; host or cells: Sprague-Dawley rat frontal cortex membranes
Test Name: 5-HT2A competitive radioligand binding assay with [3H]ketanserin, frontal cortex membranes
Set-up: species or system Sprague–Dawley rats
Condition Summary: read-out: 5-HT2A Ki (nM, 95% CI)
One threshold, 100 nM, splits the recorded Ki values: lower ones are T, equal or higher ones are F.

Known results for compounds:
>  <Compound>
COc1cccc(N2CCN(CC(O)COc3ccc4ccc(=O)oc4c3)CC2)c1 (centres unmarked)

>  <Test System>
5-HT2A receptor (Rattus norvegicus)

>  <Class Name>
T

$$$$
>  <Compound>
COc1ccccc1N1CCN(CC(O)COc2cc(=O)oc3ccccc23)CC1 (centres unmarked)

>  <Test System>
5-HT2A receptor (Rattus norvegicus)

>  <Class Name>
F

$$$$
>  <Compound>
COc1cccc(N2CCN(CC(O)COc3c(C(C)=O)c(C)cc4oc(=O)cc(C)c34)CC2)c1 (centres unmarked)

>  <Test System>
5-HT2A receptor (Rattus norvegicus)

>  <Class Name>
F

$$$$
>  <Compound>
COc1ccccc1N1CCN(CC(O)COc2ccc3c(C)cc(=O)oc3c2)CC1 (centres unmarked)

>  <Test System>
5-HT2A receptor (Rattus norvegicus)

>  <Class Name>
F

$$$$
>  <Compound>
COc1cccc(N2CCN(CC(O)COc3cc(C)cc4oc(=O)cc(C)c34)CC2)c1 (centres unmarked)

>  <Test System>
5-HT2A receptor (Rattus norvegicus)

>  <Class Name>
F

$$$$
>  <Compound>
COc1ccccc1N1CCN(CC(O)COc2ccc3ccc(=O)oc3c2)CC1 (centres unmarked)

>  <Test System>
5-HT2A receptor (Rattus norvegicus)

>  <Class Name>
T

$$$$
>  <Compound>
COc1cccc(N2CCN(CC(O)COc3ccc4c(C)cc(=O)oc4c3)CC2)c1 (centres unmarked)

>  <Test System>
5-HT2A receptor (Rattus norvegicus)

>  <Class Name>
F

$$$$

Ask: In the record for COc1ccccc1N1CCN(CC(O)COc2c(C(C)=O)c(C)cc3oc(=O)cc(C)c23)CC1 (centres unmarked) , is Ki less than 100 nM?
Reply: F

* * *

Test System: 5-HT1A receptor (Rattus norvegicus, UniProt P19327)
Construct: from tissue; host or cells: Sprague-Dawley rat hippocampus membranes
Test Name: Antagonist activity at 5-HT1A receptors, [35S]GTPγS assay with 8-OH-DPAT stimulation
Type: biochemical, Sprague–Dawley rats
Condition Summary: antagonist activity, [35S]GTPγS; given in nM in text; read-out: 5-HT1A IC50
Reported Metric: IC50 (nM)
Numeric only. Scale: nM

Ask: Recorded IC50 for COc1ccccc1N1CCN(CC(O)COc2ccc3c(C)cc(=O)oc3c2C(C)=O)CC1 (stereo not shown) , please?
Reply: 43

* * *

Test System: 5-HT1A receptor (Rattus norvegicus)
Construct: from tissue; host or cells: Sprague-Dawley rat hippocampus membranes
Test Name: Antagonist activity at 5-HT1A receptors, [35S]GTPγS assay with 8-OH-DPAT stimulation
Format: biochemical, Sprague–Dawley rats
Condition Summary: antagonist activity, [35S]GTPγS, 1 µM 8-OH-DPAT; 95% CI in brackets; read-out: 5-HT1A IC50 (µM, 95% CI)
One threshold, 10 µM, splits the recorded IC50 values: lower ones are Criterion met, equal or higher ones are Criterion not met.

Previously resolved entries follow.
>  <Compound>
COc1cccc(N2CCN(CC(O)COc3c(C(C)=O)c(C)cc4oc(=O)cc(C)c34)CC2)c1 (stereo not drawn)

>  <Class Name>
Criterion not met

$$$$
>  <Compound>
COc1cccc(N2CCN(CC(O)COc3ccc4ccc(=O)oc4c3)CC2)c1 (stereo not drawn)

>  <Class Name>
Criterion not met

$$$$
>  <Compound>
COc1ccccc1N1CCN(CC(O)COc2cc(C)cc3oc(=O)cc(C)c23)CC1 (stereo not drawn)

>  <Class Name>
Criterion not met

$$$$

Ask: Identify whether the compound COc1cccc(N2CCN(CC(O)COc3ccc4c(C)cc(=O)oc4c3)CC2)c1 (stereo not drawn) records IC50 below 10 µM.
Reply: Criterion not met

Ask: Try this compound next: COc1ccccc1N1CCN(CC(O)COc2c(C(C)=O)c(C)cc3oc(=O)cc(C)c23)CC1 (stereo not drawn)
Reply: Criterion met

Ask: Follow-up item: COc1ccccc1N1CCN(CC(O)COc2cc3oc(=O)cc(C)c3cc2C(C)=O)CC1 (stereo not drawn)
Reply: Criterion not met

Ask: Same for COc1ccccc1N1CCN(CC(O)COc2ccc3ccc(=O)oc3c2)CC1 (stereo not drawn)
Reply: Criterion met

Ask: Now try COc1cccc(N2CCN(CC(O)COc3cc(C)cc4oc(=O)cc(C)c34)CC2)c1 (stereo not drawn) .
Reply: Criterion met
